STUDY_TARGET: furin, P09958;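 also: purified furin at 1:10 enzyme:substrate in 50 mM HEPES pH 7.5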
Sequence (P09958 whole entry): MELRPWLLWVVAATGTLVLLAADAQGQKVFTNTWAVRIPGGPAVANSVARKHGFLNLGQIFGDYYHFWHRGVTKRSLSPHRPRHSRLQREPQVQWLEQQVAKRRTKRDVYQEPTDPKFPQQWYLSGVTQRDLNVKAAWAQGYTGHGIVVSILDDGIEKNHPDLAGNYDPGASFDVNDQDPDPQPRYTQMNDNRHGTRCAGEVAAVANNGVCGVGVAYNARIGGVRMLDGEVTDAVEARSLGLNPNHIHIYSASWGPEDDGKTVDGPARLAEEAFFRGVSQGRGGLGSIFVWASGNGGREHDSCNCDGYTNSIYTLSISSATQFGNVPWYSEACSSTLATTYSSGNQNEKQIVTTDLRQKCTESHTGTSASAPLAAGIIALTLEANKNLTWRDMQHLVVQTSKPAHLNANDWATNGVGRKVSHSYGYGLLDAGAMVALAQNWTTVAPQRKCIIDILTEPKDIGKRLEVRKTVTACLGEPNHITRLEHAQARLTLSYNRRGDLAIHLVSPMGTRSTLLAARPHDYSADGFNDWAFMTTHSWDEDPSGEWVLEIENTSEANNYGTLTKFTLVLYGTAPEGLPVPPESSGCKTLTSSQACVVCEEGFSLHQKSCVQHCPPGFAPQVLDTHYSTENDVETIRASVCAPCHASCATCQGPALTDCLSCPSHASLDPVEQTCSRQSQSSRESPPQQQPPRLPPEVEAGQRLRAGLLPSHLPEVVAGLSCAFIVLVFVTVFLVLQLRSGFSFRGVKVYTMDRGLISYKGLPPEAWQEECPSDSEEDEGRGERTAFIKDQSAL
ASSAY_PROTOCOL: furin cleavage Z-score vs untreated control; higher = more cleavage, active = 3.5 or more, inactive = 1 or less, 8 variable residues between constant flanks
STATED_CONDITIONS: 30 min
Some of the results follow. No count for the full screen is at hand.
# furin cleavage Z-score values compiled below
PARAMETER: furin cleavage Z-score

1. CACVPRMRRPAGNASASA [FS-753]: 0.777
2. CAWVPCHRPSAGNASASA [HC2308]: 0.688
3. CAEVVTETWVAGNASASA [HC153]: -1.97
4. CAPEKRAKRGAGNASASA [FS-1044]: 7.39
5. CASDFRRRRSAGNASASA [FS-868]: 7.52
6. CASLLSPRPIAGNASASA [HC736]: -0.193
7. CAAPVRRDRSAGNASASA [FS-977]: 5.28
8. CADLEDRDRSAGNASASA [HC487]: -1.38
9. CARNTNRRPQAGNASASA [HC167]: -0.345
10. CAINKRVKRDAGNASASA [FS-253]: 4.98
11. CARASRGGGGAGNASASA [FS-2891]: -0.232
12. CACVPCHRPSAGNASASA [HC2320]: -0.71
13. CAYLKGKWVPAGNASASA [HC549]: -0.41
14. CAKYNRGRRKAGNASASA [FS-1598]: 2.34
15. CARASRSIRIAGNASASA [FS-2893]: 7.27
16. CAGSSREVRSAGNASASA [FS-29]: 4.54
17. CAFSSREERSAGNASASA [FS-589]: -2.43
18. CAATVCARAQAGNASASA [HC956]: -0.234
19. CAAVPRLRRDAGNASASA [FS-644]: 8.75
20. CAKVKREKRGAGNASASA [FS-454]: 9.94
21. CADIINGLPVAGNASASA [HC658]: -0.966
22. CAGSSRLDRSAGNASASA [FS-1208]: 0.97
23. CATWAQPGYPAGNASASA [HC198]: -0.438
24. CAGSSRRRRSAGNASASA [FS-1334]: 6.42
25. CAKCDELAAKAGNASASA [HC860]: -0.237
26. CASVSREDRGAGNASASA [FS-1491]: -0.69
27. CARLKRQVTEAGNASASA [FS-2992]: 11.2
28. CAPLPPPKSPAGNASASA [HC1318]: -0.355
29. CAASSSASQLAGNASASA [HC1260]: 0.48
30. CARASRNKRPAGNASASA [FS-1559]: 0.132
